Source: patent US5602102A

molecular target: DPPI (Homo sapiens, UniProt P53634); assay: Substrate specificity of human DPPI: hydrolysis of synthetic peptide substrates; type: biochemical; parameters: Human DPPI is now established to constitute a 200,000 Da glycoprotein with 24,000 Da subunits; from tissue; host or cells: human cadaveric spleen; unit not given here; details: substrate concentration 100 μM
Sequence (P53634 231-394 limits assumed): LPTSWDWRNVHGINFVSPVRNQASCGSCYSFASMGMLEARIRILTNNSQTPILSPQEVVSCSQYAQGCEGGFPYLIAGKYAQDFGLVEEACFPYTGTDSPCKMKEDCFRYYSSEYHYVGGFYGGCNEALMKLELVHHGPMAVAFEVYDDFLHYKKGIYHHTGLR
Sequence (P53634 25-134 limits assumed): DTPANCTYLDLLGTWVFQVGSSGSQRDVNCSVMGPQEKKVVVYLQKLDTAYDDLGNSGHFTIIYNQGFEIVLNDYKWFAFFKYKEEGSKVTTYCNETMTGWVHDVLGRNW
Sequence (P53634 395-463 limits assumed): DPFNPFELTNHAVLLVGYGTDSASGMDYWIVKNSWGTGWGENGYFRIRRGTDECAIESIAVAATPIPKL
Where a SMILES comes first, the peptide text is derived from it. The star is where a group is joined. pNA = O=[N+]([O-])c1ccc(N*)cc1; AMC = Cc1cc(=O)oc2cc(N*)ccc12
Would you mind telling me the reported hydrolysis of substrate peptide by human DPPI of each entry?
Just the number, please, no unit after it.

input: Look up hydrolysis of substrate peptide by human DPPI with DPPI (Homo sapiens, UniProt P53634) for this molecule: COc1cc(NC(=O)C(Cc2ccccc2)NC(=O)CN)cc2ccccc12 (centres unmarked)
output: 3500

input: Look up hydrolysis of substrate peptide by human DPPI with DPPI (Homo sapiens, UniProt P53634) for this molecule: COc1cc(NC(=O)C(Cc2ccc(O)cc2)NC(=O)C(N)CO)cc2ccccc12 (centres unmarked)
output: 1000

input: Look up hydrolysis of substrate peptide by human DPPI with DPPI (Homo sapiens, UniProt P53634) for this molecule: O=C(NC(Cc1ccccc1)C(=O)Nc1ccc2ccccc2c1)OCc1ccccc1 (centres unmarked)
output: 0

input: Look up hydrolysis of substrate peptide by human DPPI with DPPI (Homo sapiens, UniProt P53634) for this molecule: NCC(=O)N[C@@H](Cc1ccccc1)C(=O)Nc1ccc([N+](=O)[O-])cc1 [Gly-Phe-pNA] (H-Gly-Phe-pNA)
output: 120

input: Look up hydrolysis of substrate peptide by human DPPI with DPPI (Homo sapiens, UniProt P53634) for this molecule: NC(N)=NCCC[C@H](N)C(=O)Nc1ccc2ccccc2c1
output: 0

input: Look up hydrolysis of substrate peptide by human DPPI with DPPI (Homo sapiens, UniProt P53634) for this molecule: COc1cc(NC(=O)[C@H](CCCN=C(N)N)NC(=O)[C@H](CC(C)C)NC(=O)[C@@H](NC(=O)OCc2ccccc2)C(C)C)cc2ccccc12
output: 0

input: Look up hydrolysis of substrate peptide by human DPPI with DPPI (Homo sapiens, UniProt P53634) for this molecule: N[C@@H](Cc1ccccc1)C(=O)Nc1ccc2ccccc2c1
output: 0

input: Look up hydrolysis of substrate peptide by human DPPI with DPPI (Homo sapiens, UniProt P53634) for this molecule: Cc1cc(=O)oc2cc(NC(=O)[C@H](Cc3ccccc3)NC(=O)CN)ccc12 [Gly-Phe-AMC] (H-Gly-Phe-{AMC})
output: 3500
